Where these numbers come from: patent US20050282743A1

Target: T1, GST-Shank 3 PDZ domain 1 (human (hypothetical, computer cloned)), Q9BYB0
T1 chain: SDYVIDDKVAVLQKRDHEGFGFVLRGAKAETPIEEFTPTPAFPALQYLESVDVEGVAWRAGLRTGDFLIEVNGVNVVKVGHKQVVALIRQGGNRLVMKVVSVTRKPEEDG
Experiment: G' assay; further: key of the grades not given here
// Classification lookup, one value per entry
Assay endpoint: Classification

binder="PSWRRSSLSESENATSLTTF (modifications not checked) [BLR-1]" assay_endpoint=Classification test_result="3 A450 class"
binder="PPATPSPRLALPAHHNATRL (modifications not checked) [Na+/Pi cotransporter 2]" assay_endpoint=Classification test_result="5 A450 class"
binder="LASKSAEEGKQIPDSLSTDL (modifications not checked) [DOCK2]" assay_endpoint=Classification test_result="1 A450 class"
binder="AWDDSARAAGGQGLHVTAL (modifications not checked) [LPAP]" assay_endpoint=Classification test_result="3 A450 class"
